Cited source for all entries: ChEMBL document CHEMBL1201862

- Tested on: OVCAR-3
- assay_details: NCI tumour cell line growth inhibition, 48 h
Active and inactive are the calls of the source. Cut-off read from the data, not from the text of the source: active = GI50 up to about 1.1 µM and inactive = higher.
Please state which outcome applies, choosing from active, inactive

query: Returns: the outcome recorded for C[Si]12OCCCN(CCO1)CCO2 in this assay.
result: inactive

query: Please let me know the test result on file for COC(=O)c1c(O)ccc2c1c1c(n2Cc2ccc(OC)cc2)C(=O)c2ccccc2C1 .
result: inactive

query: Outcome? CC(=O)Nc1ccc2c3c(cc(O)c2c1)N(C(=O)CCCCCCC(=O)N1CC(CCl)c2c1cc(O)c1cc(NC(C)=O)ccc21)CC3CCl (centres undefined)
result: active

query: Hi team, can someone confirm the assay call for COc1cc([N+](=O)[O-])ccc1NC(=O)c1cccc([N+](=O)[O-])c1O ?
result: inactive

query: Kindly provide the recorded test outcome for the following molecule: O=C(O)CN1C(=O)C(Cc2ccc(O)cc2)N=C(c2cccc(O)c2)c2ccccc21 (centres undefined)
result: inactive

query: Please share the test call associated with Nc1ccc2[nH]cc(CCC(=O)O)c2c1 .
result: inactive

query: Could you please tell me the result logged for C[C@@H](CO)OCOCc1ccccc1 in this assay?
result: inactive

query: Hello, I am checking results. What call was entered for O=C(Cc1ccccc1)NN1C(=O)C(Cl)C1c1cccc(O)c1 (centres undefined) ?
result: inactive

query: What is the recorded call for this molecule in the test? CSc1nc(N)c2c(-c3ccccc3)c3c(nc2n1)CCCC3
result: inactive

query: Could you check what this test reported for CCC(=O)C(C(=O)CC)c1c(OC(=O)c2ccccc2)ccc(O)c1C(=O)OC ?
result: inactive

query: # outcome recorded in this test, key = Cc1c(N2CCCC2)cc2c(c1NC(=O)c1ccccc1Cl)C(C)(C)CC2(C)C
result: inactive

query: Identify the outcome logged in this assay for the molecule shown: Cc1cccc(C2=C/C(=C(\SS/C(C(=O)c3ccc(OCC(=O)O)c(Cl)c3Cl)=C3\C=C(c4cccc(C)c4)SS3)C(=O)c3ccc(OCC(=O)O)c(Cl)c3Cl)SS2)c1
result: inactive

query: Just curious, what result did O=[N+]([O-])C1CC/C(=N/O)c2nonc21 (centres undefined) get here?
result: inactive

query: # fetch the recorded call for CC(C)(C)c1cc2c(c(C(C)(C)C)c1O)CC(=O)O2 here
result: inactive

query: In this assay, the call recorded for C=C1CC(CN2CCC(=O)NC2=O)(c2ccccc2)OC1=O (centres undefined) was what?
result: inactive

query: Lab log entry: CC1OC(OCC2COC(O)(Oc3c(-c4ccc(O)c(O)c4)oc4cc(O)cc(O)c4c3=O)C(O)C2O)C(O)C(O)C1O (centres undefined) — outcome as called in the assay?
result: inactive

query: Returns: the outcome recorded for COc1ccccc1N/C(=C\C(=O)C(=O)NC12CC3CC(CC(C3)C1)C2)c1ccccc1 in this assay.
result: inactive

query: How was Cc1c2c(c(C)n1-c1ccccc1)C(=O)N(CCN1CCN(c3cccc(C(F)(F)F)c3)CC1)C2=O classified in this test?
result: inactive

query: GET /call?item= COc1ccc(NC(=O)CCc2cc(-c3ccc(O)c(OC)c3)nc(NC#N)n2)cc1 returns the recorded outcome of this test.
result: inactive

query: Could you please tell me the result logged for CCn1c2ccccc2c2cc(Nc3cc(C)[nH]c(=O)n3)ccc21 in this assay?
result: inactive

query: Test call, this molecule: C1=CC(=P(c2ccccc2)(c2ccccc2)c2ccccc2)C=C1
result: inactive

query: Hi, do you know how COc1ccc(/C=C/C(C(=O)O)C(=O)O)cc1 came out in this test?
result: inactive

query: Assay outcome for c1ccc(/C(=N/Nc2cnccn2)c2ncccn2)cc1 : what was it?
result: inactive

query: Record lookup: outcome of this test for O=[N+]([O-])C(C(Cl)=C(Cl)Cl)=C(N1CCCCC1)N1CCCCC1 ?
result: inactive

query: Short answer needed: outcome of this test for O=C(O)C1CC(c2ccc(F)cc2)=Nc2ccc(F)cc2S1 (centres undefined) ?
result: inactive

query: How was Nc1nc(N)c(C2=CCN(Cc3ccccc3)CC2)c(=O)[nH]1 classified in this test?
result: inactive

query: # fetch the recorded call for C#C[C@]1(O)CCCC2=CC(=O)CC[C@@]21C here
result: inactive

query: Please let me know the test result on file for CC(=O)ON1C(=O)c2cccc3cccc(c23)C1=O .
result: inactive

query: Recorded test call requested for COC(=O)C(=O)C(C(=O)C(=O)Nc1ccc([N+](=O)[O-])cc1)c1nc2ccccc2nc1O (centres undefined)
result: inactive

query: Returns: the outcome recorded for O=C(NO)NCCCl in this assay.
result: inactive

query: Record lookup: outcome of this test for Cc1ccc(S(=O)(=O)NC(=O)C2=C3SCCN3C(=O)N(S(=O)(=O)c3ccc(C)cc3)C2c2ccccc2)cc1 (centres undefined) ?
result: inactive

query: Tell me the recorded outcome of this test for Cc1cc(NS(=O)(=O)c2ccc(NC(=O)c3cccc4c(Nc5ccc(S(N)(=O)=O)cc5)c5ccccc5nc34)cc2)no1 .
result: inactive

query: In this assay, the call recorded for Nc1nc2[nH]cc(CCc3ccc(C(=O)N[C@@H](CCC(=O)O)C(=O)O)cc3)c2c(=O)[nH]1 was what?
result: inactive

query: What outcome does the record of this test show for CCC(=O)O[C@H]1CC[C@H]2[C@@H]3CCC4=CC(=O)C=C[C@]4(O)[C@H]3CC[C@]12C ?
result: inactive

* * *

- System: EKVX
- assay_details: NCI tumour cell line growth inhibition, 48 h
Active and inactive are the calls of the source. No stated cut-off is given here; in the data, active = GI50 up to about 1.1 µM and inactive = higher.
Provide the recorded GI50 for the entries that follow.

query: Write down measured GI50 (EKVX) for this molecule. C=CCN1CC2CN=NC2(C#N)C1 (stereo unspecified)
result: > 100 µM (inactive)

query: Give the observed GI50 of COc1cc(CSc2ccc(O)cc2)cc(OC)c1OC for EKVX.
result: 39.8 µM (inactive)

query: Check EKVX data and give GI50 for CC1=CC2=C(C#N)C(=O)OC2(C)C(c2ccccc2)C1 (stereo unspecified) .
result: > 100 µM (inactive)

query: State, for EKVX, measured GI50 of the molecule listed here: COc1ccc(-c2nc(-c3cnccn3)n(C3OC(CO)C(O)C(O)C3O)n2)cc1 (stereo unspecified)
result: > 100 µM (inactive)

query: Quote EKVX GI50 for entry N#Cc1cc(Sc2ccc(N)c(C#N)c2)ccc1N .
result: 16 µM (inactive)

query: Lab note: record GI50 of CS(=O)(=O)C1(Br)S(=O)(=O)OCCOS1(=O)=O tested on EKVX.
result: > 100 µM (inactive)

* * *

- Tested on: BT-549
- assay_details: NCI tumour cell line growth inhibition, 48 h
Activity calls are given as the source filed them. No stated cut-off is given here; in the data, active = GI50 up to about 1.1 µM and inactive = higher.
readout_label: GI50

query: Give GI50 for N#CC1=C(N)N(c2ccccc2)C(c2ccco2)C1(C#N)C#N (stereo not given)
result: 18.8 µM (inactive)

query: Complete the entry with GI50 for O=C1/C(=C\c2ccc([N+](=O)[O-])cc2)N(S(=O)(=O)c2ccccc2)c2ncccc21
result: 18.3 µM (inactive)

query: Please report GI50 for the following compound: C=C1CC[C@H]2C(C)=CC[C@H]3C(=C)C(=O)O[C@@H]3[C@@H]12 [EREMANTHIN]
result: > 100 µM (inactive)

query: Given COc1cc(N(CCC#N)CCC#N)ccc1C(=N/NC(=O)c1cc(Br)ccc1O)/N=N/c1ccc(C)cc1 , respond with its GI50.
result: 18 µM (inactive)

query: Return reported GI50. Input compound: Nc1ccc2c(SCCSc3c4ccccc4nc4cc(N)ccc34)c3ccccc3nc2c1
result: > 100 µM (inactive)

* * *

Field: GI50. Provide a value for each of the compounds that follow.
- System: U-251
- assay_details: NCI tumour cell line growth inhibition, 48 h
Calls of active or inactive are those of the source. Cut-off read from the data, not from the text of the source: active = GI50 up to about 1.1 µM and inactive = higher.

query: Give reported GI50 value for O=C1OC(c2ccc(O)c(F)c2)(c2ccc(O)c(F)c2)c2cccc3cccc1c23
result: > 25 µM (inactive)

query: Using known records, supply GI50 for COC(=O)/C=C(/C)n1nc2ccccc2n1
result: > 100 µM (inactive)

query: State, in one line, measured GI50 of NCCOc1cccc(C2(N3CCCCC3)CCCCC2)c1
result: 18.2 µM (inactive)

query: Fill in GI50 for record O=C1c2ccccc2C(=O)c2c1nc1ccccc1c2-c1cncc(-c2c3c(nc4ccccc24)C(=O)c2ccccc2C3=O)c1
result: 8 µM (inactive)

query: For the compound Nc1nc(N)c2c(-c3ccccc3)ccnc2n1 , give its measured GI50 value.
result: > 100 µM (inactive)

query: Name the recorded GI50 of the compound listed here: Cc1ccc(/C=C/C(=N/NC(=O)N/N=C(/C=C/c2ccc(C)cc2)C(C)C)C(C)C)cc1
result: > 10 µM (inactive)

query: Tell me its GI50 given Cc1cc(C)n2c(-c3ccccc3)c(C)cc2n1 as the entry.
result: 34 µM (inactive)

query: Identify the reported GI50 for the following entry. C=C(C)[C@@H](C(=O)OC)N1C(=O)c2ccccc2C1=O
result: > 100 µM (inactive)

query: Consider the compound O=C(O)CC(C(=O)O)c1ccccc1[N+](=O)[O-] (centres undefined) . State its measured GI50.
result: > 100 µM (inactive)

query: Tell me GI50 reported for NC(Cc1ccccc1)C(=O)O (centres undefined)
result: > 100 µM (inactive)

query: Give the value of GI50 reported for the following: COc1cc(CSc2ccc(O)cc2)cc(OC)c1OC
result: 29.2 µM (inactive)

query: Retrieve GI50 measured for COc1ccc(NC(=O)C2C(=O)N(c3ccc(OC)cc3)C(=O)/C2=N/O)cc1 (centres undefined) and print it.
result: 22.3 µM (inactive)

query: For the compound N#CC1=C(N)N(c2ccccc2)C(c2ccco2)C1(C#N)C#N (centres undefined) , give its reported GI50.
result: 21.8 µM (inactive)

query: Specify reported GI50 for the compound shown: COc1cc(-c2nn3c(=O)n(-c4ccc(Cl)cc4)c(=O)nc3s2)cc(OC)c1OC
result: 18 µM (inactive)
